experimental-protocol: chemical genetic growth profiling, strain panel (AID 1159580);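 also: tested at 20 µM; growth read once vehicle control cultures reached saturation at 30 °C; 1 = growth at the plate median or of vehicle wells; lower values mean less growth of the strain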
test-context: S. cerevisiae deletion strains, growth OD, locus YJL095W, strain BCK1, active compounds read low
About 2,000 (36%) of roughly 5,500 compounds were called active. About 18% were inconclusive and are not listed. This is one part of the list.
API: label(entry) gives true (1) if the entry's normalized growth is strictly smaller than 0.7; on equality or larger values it gives false (0).

stdin: Quick check: does CC(C)(C)NCC(O)COc1cccc2c1CCCC2=O (stereo unspecified) have normalized growth under 0.7?
stdout: false (0)

stdin: Likewise for C[C@H]1[C@H](C)CC[C@]2(C(=O)O)CC[C@]3(C)C(=CCC4[C@@]5(C)C[C@@H](O)[C@H](O)[C@@](C)(CO)C5CC[C@]43C)[C@H]12 (stereo partly specified) ?
stdout: false (0)

stdin: Likewise for N#C/C(N=Cc1cc(Cl)cc(Cl)c1O)=C(\C#N)N=Cc1cc(Cl)cc(Cl)c1O ?
stdout: true (1)

stdin: Likewise for C[N+]1(C)C[C@H](O)[C@H](C(=O)[O-])C1 ?
stdout: false (0)

stdin: Likewise for O=C1Nc2ccccc2/C1=C\c1c[nH]c2ccccc12 ?
stdout: true (1)
